# Test system: IFNγ-Induced NO Production
# ASSAY_SUMMARY: Nitric Oxide Suppression Assay (Suppression of IFNγ-Induced NO Production)
# Format: cell-based
# RECORDED_CONDITIONS: RAW264.7; RAW 264.7 mouse macrophage cells; 2 hour pre-treatment with compound (3 μM to 0.3 nM, 10 point curve); 20 ng/mL interferon gamma, ~18 hour; Griess detection; n=2-3 in duplicates
Label key: Fulfilled means IC50 under 30 nM; Not fulfilled means IC50 of 30 nM or more.

Ask | # TODO verify IC50 < 30 nM strictly for this compound: COc1nc(-c2ccccc2F)nc2c1CC[C@H]1[C@H](C)C(=O)C(C#N)=C[C@]21c1ccccc1
Reply | Not fulfilled

Ask | Hello, is IC50 of the following compound strictly smaller than 30 nM? COc1nc(OC)c2c(n1)[C@@]1(c3ccccc3)C=C(C#N)C(=O)[C@@H](C)[C@@H]1CC2
Reply | Fulfilled

Ask | Bench note: check whether C[C@@H]1C(=O)C(C#N)=C[C@]2(c3cccc(C(N)=O)c3)c3ncncc3CC[C@@H]12 shows IC50 below 30 nM
Reply | Not fulfilled

Ask | Quick check: IC50 of C[C@@H]1C(=O)C(C#N)=C[C@]2(c3ccccc3)c3nc(-c4ccc(C(=O)N(C)C)cc4)ncc3CC[C@@H]12 under 30 nM?
Reply | Fulfilled

Ask | Field: below-cutoff. Rule: recorded IC50 strictly less than 30 nM. Subject: C[C@@H]1C(=O)C(C#N)=C[C@]2(c3ccc(F)cc3)c3nn(C(=O)CN)cc3CC[C@@H]12
Reply | Not fulfilled

Ask | Please state whether IC50 is below 30 nM for C[C@@H]1C(=O)C(C#N)=C[C@]2(c3ccccc3)c3nn(C(=O)Nc4cccnc4)cc3CC[C@@H]12
Reply | Not fulfilled

Ask | Say whether its IC50 is strictly beneath 30 nM. Entry: COC(=O)n1cc(-c2nc(C)nc3c2CC[C@H]2[C@H](C)C(=O)C(C#N)=C[C@]32c2ccccc2)cn1
Reply | Fulfilled

###

# Test system: IFNγ-Induced NO Production
# ASSAY_SUMMARY: Nitric Oxide Suppression Assay (Suppression of IFNγ-Induced NO Production)
# Assay type: cell-based
# RECORDED_CONDITIONS: RAW264.7; RAW 264.7 mouse macrophage cells; 2 hour pre-treatment with compound (3 μM to 0.3 nM, 10 point curve); 20 ng/mL interferon gamma, ~18 hour; Griess detection; n=2-3 in duplicates
MEASURED_PARAMETER: IC50
Note: state the figure and append the unit.

Ask | Please supply the value of reported IC50 for the item C[C@@H]1C(=O)C(C#N)=C[C@]2(c3ccccc3)c3nn(C)c(-c4cccc(-c5ccc(N(S(C)(=O)=O)S(C)(=O)=O)cc5)c4)c3CC[C@@H]12 [Example 152]
Reply | 11.5 nM

Ask | Provide IC50 value for the following compound: C[C@@H]1C(=O)C(C#N)=C[C@]2(c3ccccc3)c3nn(C)c(-c4cccc(-c5cn[nH]c5)c4)c3CC[C@@H]12 [Example 167]
Reply | 3.27 nM

Ask | Give the measured IC50 for Cc1nc(-c2cccc(CCC(N)=O)c2)c2c(n1)[C@@]1(c3ccccc3)C=C(C#N)C(=O)[C@@H](C)[C@@H]1CC2 [Example 156]
Reply | 3.57 nM

###

Please respond with reported pIC50 for every item in the list.
# System: IFNγ-Induced NO Production
# ASSAY_SUMMARY: Nitric Oxide Suppression Assay (Suppression of IFNγ-Induced NO Production)
# Type: cell-based
# RECORDED_CONDITIONS: RAW264.7; RAW 264.7 mouse macrophage cells; 2 hour pre-treatment with compound (3 μM to 0.3 nM, 10 point curve); 20 ng/mL interferon gamma, ~18 hour; Griess detection; n=2-3 in duplicates
When answering, recall that pIC50 equals minus log10 of the concentration in mol/L, and write that number alone.

Ask | Using known records, supply pIC50 for C[C@@H]1C(=O)C(C#N)=C[C@]2(c3ccccc3)c3nc(-c4ccc(O)cc4)ncc3CC[C@@H]12
Reply | 8.30

Ask | Assign pIC50 to the following record: Cc1nc(-c2cccc(O)c2)c2c(n1)[C@@]1(c3ccccc3)C=C(C#N)C(=O)[C@@H](C)[C@@H]1CC2
Reply | 8.54

Ask | Determine from records and report pIC50 for C[C@@H]1C(=O)C(C#N)=C[C@]2(c3ccc(O)cc3)c3ncncc3CC[C@@H]12
Reply | 8.07

Ask | Give reported pIC50 value for Cc1nc(-c2ccc3nccn3c2)c2c(n1)[C@@]1(c3ccccc3)C=C(C#N)C(=O)[C@@H](C)[C@@H]1CC2
Reply | 7.97

###

# Test system: IFNγ-Induced NO Production
# ASSAY_SUMMARY: Nitric Oxide Suppression Assay (Suppression of IFNγ-Induced NO Production)
# Assay type: cell-based
# RECORDED_CONDITIONS: RAW264.7; RAW 264.7 mouse macrophage cells; 2 hour pre-treatment with compound (3 μM to 0.3 nM, 10 point curve); 20 ng/mL interferon gamma, ~18 hour; Griess detection; n=2-3 in duplicates
MEASURED_PARAMETER: IC50 (nM)
Write the value in nM as a bare number.

Ask | Under IFNγ-Induced NO Production, report IC50 for CC(=O)OCCCc1cccc(-c2nc(C)nc3c2CC[C@H]2[C@H](C)C(=O)C(C#N)=C[C@]32c2ccccc2)c1
Reply | 4.69

Ask | # return IC50 for C[C@@H]1C(=O)C(C#N)=C[C@]2(c3ccccc3)c3n[nH]c(-c4ccnnc4)c3CC[C@@H]12 , test system: IFNγ-Induced NO Production
Reply | 8.45

Ask | Recall the reported IC50 of Cc1nc(-c2ccc(O)cc2)c2c(n1)[C@@]1(c3ccccc3)C=C(C#N)C(=O)[C@@H](C)[C@@H]1CC2 when tested on IFNγ-Induced NO Production.
Reply | 3.63

Ask | State, for IFNγ-Induced NO Production, measured IC50 of the compound listed here: COc1nc(Nc2ccccc2)nc2c1CC[C@H]1[C@H](C)C(=O)C(C#N)=C[C@]21c1ccccc1
Reply | 11.4

###

# System: IFNγ-Induced NO Production
# ASSAY_SUMMARY: Nitric Oxide Suppression Assay (Suppression of IFNγ-Induced NO Production)
# Assay type: cell-based
# RECORDED_CONDITIONS: RAW264.7; RAW 264.7 mouse macrophage cells; 2 hour pre-treatment with compound (3 μM to 0.3 nM, 10 point curve); 20 ng/mL interferon gamma, ~18 hour; Griess detection; n=2-3 in duplicates
I'd be grateful if you could share measured IC50 for these entries.
Respond with the bare value in nM.

Ask | For C[C@@H]1C(=O)C(C#N)=C[C@]2(c3ccc(F)cc3)c3n[nH]cc3CC[C@@H]12 , write its IC50.
Reply | 35.5

Ask | Assign IC50 to the following record: C[C@@H]1C(=O)C(C#N)=C[C@]2(c3cccc(O)c3)c3ncncc3CC[C@@H]12
Reply | 8.93

Ask | Output IC50 of Cc1nc(-c2cncnc2)c2c(n1)[C@@]1(c3ccc(F)cc3)C=C(C#N)C(=O)[C@@H](C)[C@@H]1CC2
Reply | 33.6

Ask | Identify the reported IC50 for the following entry. COc1ncc(-c2cccc(-c3c4c(nn3C)[C@@]3(c5ccccc5)C=C(C#N)C(=O)[C@@H](C)[C@@H]3CC4)c2)cn1
Reply | 6.46

###

# Test system: IFNγ-Induced NO Production
# ASSAY_SUMMARY: Nitric Oxide Suppression Assay (Suppression of IFNγ-Induced NO Production)
# Format: cell-based
# RECORDED_CONDITIONS: RAW264.7; RAW 264.7 mouse macrophage cells; 2 hour pre-treatment with compound (3 μM to 0.3 nM, 10 point curve); 20 ng/mL interferon gamma, ~18 hour; Griess detection; n=2-3 in duplicates
Threshold 7 nM: IC50 strictly smaller gives Condition met, otherwise Condition not met.

Ask | Here's an entry: C[C@@H]1C(=O)C(C#N)=C[C@]2(c3ccccc3)c3n[nH]c(-c4cccc(NS(C)(=O)=O)c4)c3CCC12 (some centres unmarked) . Is its IC50 below 7 nM?
Reply | Condition not met

Ask | Would you kindly verify if IC50 of COC(=O)c1cccc([C@]23C=C(C#N)C(=O)[C@@H](C)[C@@H]2CCc2cnc(-c4ccccc4)nc23)c1 is strictly less than 7 nM?
Reply | Condition not met

Ask | Is the reported IC50 for C[C@@H]1C(=O)C(C#N)=C[C@]2(c3ccccc3)c3n[nH]c(-c4cnn(-c5ccc(C#N)cc5)c4)c3CC[C@@H]12 strictly below 7 nM?
Reply | Condition not met

Ask | Determine if Cc1nc(Nc2cccnc2)c2c(n1)[C@@]1(c3ccccc3)C=C(C#N)C(=O)[C@@H](C)[C@@H]1CC2 shows IC50 strictly lower than 7 nM.
Reply | Condition not met

Ask | For this compound, is IC50 lower than 7 nM? C[C@@H]1C(=O)C(C#N)=C[C@]2(c3ccccc3)c3nc(Nc4ccccc4)nc(-c4cncnc4)c3CC[C@@H]12
Reply | Condition not met

Ask | Criterion: IC50 strictly below 7 nM. Is it met by C[C@@H]1C(=O)C(C#N)=C[C@]2(c3cccc(C(=O)O)c3)c3nc(-c4ccc(C(=O)O)cc4)ncc3CC[C@@H]12 ?
Reply | Condition not met

Ask | Would you kindly verify if IC50 of Cc1nc(-c2cccc(-c3ccc(N)cc3)c2)c2c(n1)[C@@]1(c3ccccc3)C=C(C#N)C(=O)[C@@H](C)[C@@H]1CC2 is strictly less than 7 nM?
Reply | Condition met

Ask | I'd appreciate it if you could check whether CCCNC(=O)c1cccc([C@]23C=C(C#N)C(=O)[C@@H](C)[C@@H]2CCc2cncnc23)c1 has IC50 smaller than 7 nM.
Reply | Condition not met

Ask | Consider the compound COc1ccccc1-c1nc(OC)c2c(n1)[C@@]1(c3ccccc3)C=C(C#N)C(=O)[C@@H](C)[C@@H]1CC2 . Is its IC50 strictly less than 7 nM?
Reply | Condition not met

Ask | Identify whether the compound Cc1nc(-c2cccc3c(Br)n[nH]c23)c2c(n1)[C@@]1(c3ccc(F)cc3)C=C(C#N)C(=O)[C@@H](C)[C@@H]1CC2 records IC50 below 7 nM.
Reply | Condition not met

Ask | Please let me know if COC(=O)c1ccc(-c2ncc3c(n2)[C@@]2(c4cccc(C(=O)OC)c4)C=C(C#N)C(=O)[C@@H](C)[C@@H]2CC3)cc1 shows IC50 below 7 nM.
Reply | Condition not met

Ask | I'd appreciate it if you could check whether Cc1nc(-c2cccc(-c3ccc(O)cc3)c2)c2c(n1)[C@@]1(c3ccccc3)C=C(C#N)C(=O)[C@@H](C)[C@@H]1CC2 has IC50 smaller than 7 nM.
Reply | Condition met

Ask | Field: below-cutoff. Rule: recorded IC50 strictly less than 7 nM. Subject: C[C@@H]1C(=O)C(C#N)=C[C@]2(c3ccccc3)c3n[nH]c(-c4cnn(-c5ccncc5)c4)c3CC[C@@H]12
Reply | Condition not met

Ask | Hello, I'm reviewing records and need to know if IC50 of COC(=O)c1ccc([C@]23C=C(C#N)C(=O)[C@@H](C)[C@@H]2CCc2c(-c4cncn4C)nc(C)nc23)cc1 is below 7 nM. Could you check?
Reply | Condition met

Ask | Does C[C@@H]1C(=O)C(C#N)=C[C@]2(c3ccccc3)c3n[nH]c(-c4ccc(CCO)cc4)c3CC[C@@H]12 have IC50 strictly under 7 nM?
Reply | Condition not met

Ask | Field: below-cutoff. Rule: recorded IC50 strictly less than 7 nM. Subject: C[C@@H]1C(=O)C(C#N)=C[C@]2(c3ccc(F)cc3)c3nc(-c4cccnc4)ncc3CC[C@@H]12
Reply | Condition met

Ask | For this compound, is IC50 lower than 7 nM? COc1ccc([C@]23C=C(C#N)C(=O)[C@@H](C)[C@@H]2CCc2cncnc23)cc1
Reply | Condition met

Ask | Hello, is IC50 of the following compound strictly smaller than 7 nM? C[C@@H]1C(=O)C(C#N)=C[C@]2(c3ccccc3)c3n[nH]c(-c4cncc(CO)c4)c3CC[C@@H]12
Reply | Condition not met
